- Target Desc: hCA XII (Homo sapiens)
- Sequence (O43570 25-354): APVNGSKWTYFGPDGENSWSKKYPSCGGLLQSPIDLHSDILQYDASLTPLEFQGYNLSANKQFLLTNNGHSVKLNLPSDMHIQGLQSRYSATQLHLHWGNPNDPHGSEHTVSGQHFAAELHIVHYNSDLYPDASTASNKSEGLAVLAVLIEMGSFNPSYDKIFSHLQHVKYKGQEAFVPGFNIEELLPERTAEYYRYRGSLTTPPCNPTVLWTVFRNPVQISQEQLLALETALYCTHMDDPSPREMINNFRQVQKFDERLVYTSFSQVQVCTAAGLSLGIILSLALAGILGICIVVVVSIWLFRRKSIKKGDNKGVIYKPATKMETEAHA
pKi: −log10 of the molar value.
Each entry below carries its recorded pKi.

{"columns": ["Compound", "Target Desc", "pKi"],
 "data": [
  ["CCCCc1ccc(NC(=O)Nc2ccc3oc(=O)ccc3c2)cc1 [Compound 5e]", "hCA XII (Homo sapiens)", 7.02],
  ["O=C(Nc1ccc(C(F)(F)F)cc1)Nc1ccc2oc(=O)ccc2c1 [Compound 5b]", "hCA XII (Homo sapiens)", 7.41],
  ["O=C(Nc1cc(Cl)cc(Cl)c1)Nc1ccc2oc(=O)ccc2c1 [Compound 5j]", "hCA XII (Homo sapiens)", 7.63],
  ["O=C(Nc1ccc2oc(=O)ccc2c1)Nc1c(Br)cc(F)cc1Br [Compound 5p]", "hCA XII (Homo sapiens)", 7.30],
  ["O=C(Nc1cc(C(F)(F)F)cc(C(F)(F)F)c1)Nc1ccc2oc(=O)ccc2c1 [Compound 5i]", "hCA XII (Homo sapiens)", 8.23],
  ["O=C(Nc1ccc2oc(=O)ccc2c1)c1ccc(Cl)c(C(F)(F)F)c1 [Compound 7a]", "hCA XII (Homo sapiens)", 7.37],
  ["Cc1cccc(Cl)c1NC(=O)Nc1ccc2oc(=O)ccc2c1 [Compound 5o]", "hCA XII (Homo sapiens)", 7.86],
  ["O=C(Nc1ccc(F)c(Cl)c1)Nc1ccc2oc(=O)ccc2c1 [Compound 5h]", "hCA XII (Homo sapiens)", 7.99],
  ["O=C(Nc1ccc(F)cc1)Nc1ccc2oc(=O)ccc2c1 [Compound 5c]", "hCA XII (Homo sapiens)", 7.40],
  ["O=C(Nc1ccc(Br)cc1)Nc1ccc2oc(=O)ccc2c1 [Compound 5d]", "hCA XII (Homo sapiens)", 7.29]
]}

* * *

Each item that follows carries a reported melting point.

{"columns": ["Smiles Text", "melting point"],
 "data": [
  ["O=C(Nc1ccc2oc(=O)ccc2c1)c1cc(C(F)(F)F)cc(C(F)(F)F)c1", "240 to 241 °C"],
  ["O=C(Nc1ccc(Br)cc1)Nc1ccc2oc(=O)ccc2c1", "257 to 258 °C"],
  ["CCCCOc1ccc(NC(=O)Nc2ccc3oc(=O)ccc3c2)cc1", "234 to 235 °C"],
  ["CCCCc1ccc(NC(=O)Nc2ccc3oc(=O)ccc3c2)cc1", "223 to 224 °C"],
  ["O=C(Nc1ccc2oc(=O)ccc2c1)Nc1ccc(Cl)cc1Cl", "291 to 292 °C"]
]}

Attribution: paper PMC9897768
